- target entity: T1, monkey CD3 epsilon (cynomolgus monkey, UniProt Q95LI5)
- T1 chain: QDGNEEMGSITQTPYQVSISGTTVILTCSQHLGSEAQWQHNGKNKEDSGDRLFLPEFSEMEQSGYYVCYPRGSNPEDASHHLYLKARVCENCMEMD
- protocol description: SPR
measurement type: pKd
# log scale: pKd equals minus log10 of the concentration in mol/L

binder | measurement type | result number
15H3L2 (antibody, V domains shown) VH: EVQLLESGGGLVQPGGSLRLSCAASGFTFNTYAMNWVRQAPGKGLEWVARIRSKYNNYATYYAISVKDRFTISRDDSKNTLYLQMNSLRAEDTAMYYCVRHGNFGNSYLSYWAYWGQGTLVTVSS VL: QTVVTQEPSLTVSPGGTVTLTCQSSTGAVTTNNYANWVQQKPGQAPRALIGGTKQRAPGTPARFSGSLLGGKAALTLSGVQPEDEAEYYCVLWYSNLWVFGGGTKLTVL | pKd | 9.23

Noted for 26H3L3 (antibody, V domains shown) VH: EVQLLESGGGLVQPGGSLRLSCAASGFTFNTYAMNWVRQAPGKGLEWVARIRSKYNNYATYYADSVKDRFTISRDDSKNTLYLQMNSLRAEDTAMYYCVRHGNFGNSYISWWAYWGQGTLVTVSS VL: QAVVTQEPSLTVSPGGTVTLTCKSSTGAVTTSNYANWVQQKPGHAFRGLIGGTNLHAPGVPARFSGSLLGGKAALTLSGVQPEDEAEYYCALWYSNLWVFGGGTKLTVL : its pKd reads 9.72

Data provenance is patent US12180280.
